FYI, the data here is from ChEMBL document CHEMBL3621101.

METHOD SUMMARY: physchem
MEASUREMENT PARAMETERS: pH 7
PROPERTY LABEL: pKa

Example cases with answers are listed next.
CN1CCCN(c2nc(NC3CCN(Cc4ccccc4)CC3)c3sccc3n2)CC1
5.68
CN1CCCN(c2nc(NC3CCN(Cc4ccccc4)CC3)c3[nH]cnc3n2)CC1
3.15
CN1CCCN(c2nc3c(c(NC4CCN(Cc5ccccc5)CC4)n2)CCC3)CC1
6.62
c1ccc(CN2CCC(Nc3nc(N4CCCCC4)nc4sccc34)CC2)cc1
3.86

[P] c1ccc(CN2CCC(Nc3nc(N4CCCCC4)nc4ccoc34)CC2)cc1
[Q] COc1cc2nc(N3CCCN(C)CC3)nc(NC3CCN(Cc4ccccc4)CC3)c2cc1OC
[R] CN1CCN(c2nc(NC3CCN(Cc4ccccc4)CC3)c3ccsc3n2)CC1
Sort the 3 molecules by pKa; largest first, smallest last. Respond with an ordered listing of the labels, as requested.
Q, P, R

[1] CN1CCN(c2nc(NC3CCN(Cc4ccccc4)CC3)c3cc4c(cc3n2)OCO4)CC1
[2] COc1cc2nc(N3CCN(C)CC3)cc(NC3CCN(Cc4ccccc4)CC3)c2cc1OC
Which gives the smaller pKa number: 1 or 2 ? Reply with the label of the item you choose.
1
(1: 5.58, 2: 9.84)
